biological target: T1, biotin-labeled human PD-1 Fc protein (human, biotin-labeled (site not stated)); experiment: capture ELISA, antibody captured on plate, biotin-labeled human PD-1 Fc in solution
T1 construct: also called PD-1-Fc-biotin
T1 sequence (chain, as listed by the source limits assumed): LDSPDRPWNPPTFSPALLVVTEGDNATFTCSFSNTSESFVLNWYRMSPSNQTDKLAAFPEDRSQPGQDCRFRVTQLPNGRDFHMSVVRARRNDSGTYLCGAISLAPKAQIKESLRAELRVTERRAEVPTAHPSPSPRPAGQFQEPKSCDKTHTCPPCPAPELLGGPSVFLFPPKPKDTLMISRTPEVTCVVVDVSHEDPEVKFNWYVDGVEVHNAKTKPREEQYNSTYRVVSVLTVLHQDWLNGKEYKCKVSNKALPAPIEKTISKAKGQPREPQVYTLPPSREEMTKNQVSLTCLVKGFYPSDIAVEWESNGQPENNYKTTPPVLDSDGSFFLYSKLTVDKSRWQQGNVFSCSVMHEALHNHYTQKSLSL
Listed below: EC50 values for each entry.
Report only the number, with the unit ng/mL understood.

>>> reported("Nivolumab (OPDIVO®) (antibody, V domains shown) VH: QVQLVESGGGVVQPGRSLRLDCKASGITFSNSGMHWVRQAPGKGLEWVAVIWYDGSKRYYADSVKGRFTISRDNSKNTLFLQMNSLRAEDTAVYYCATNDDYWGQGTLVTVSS VL: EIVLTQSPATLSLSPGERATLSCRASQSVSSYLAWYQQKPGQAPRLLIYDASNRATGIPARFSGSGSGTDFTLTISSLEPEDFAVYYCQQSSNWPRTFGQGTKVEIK")
0.365
>>> reported("mouse anti-PD-1 monoclonal antibody D2H3 (antibody, V domains shown, Mouse antibody purified from a hybridoma; also called Mouse D2H3; mouse D2H3) VH: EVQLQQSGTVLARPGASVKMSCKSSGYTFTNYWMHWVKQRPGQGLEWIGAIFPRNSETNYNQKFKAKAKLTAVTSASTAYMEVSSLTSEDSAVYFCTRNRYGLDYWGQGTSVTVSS VL: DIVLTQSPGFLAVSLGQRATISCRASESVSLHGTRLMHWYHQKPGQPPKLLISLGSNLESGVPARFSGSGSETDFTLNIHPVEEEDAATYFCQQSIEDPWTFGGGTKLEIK")
0.229
>>> reported("chimeric D2H3 antibody (antibody, human IgG1, kappa, V domains shown, Mouse variable domains cloned in frame to human IgG1 and kappa constant regions; also called chD2H3) VH: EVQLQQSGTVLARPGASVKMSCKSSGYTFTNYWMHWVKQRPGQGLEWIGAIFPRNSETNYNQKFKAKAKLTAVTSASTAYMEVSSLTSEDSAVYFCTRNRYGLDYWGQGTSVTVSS VL: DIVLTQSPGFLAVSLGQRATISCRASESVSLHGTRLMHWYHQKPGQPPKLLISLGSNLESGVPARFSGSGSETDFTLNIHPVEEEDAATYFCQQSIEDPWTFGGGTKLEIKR")
1.51
>>> reported("huD2H3-V9 (antibody, human IgG1, kappa, V domains shown, Humanized D2H3, human IgG1/kappa) VH: EVQLVQSGAEVKKPGSSVKVSCKSSGYTFTNYWMHWVRQAPGQGLEWIGAIFPRNSETNYNQKFKARATLTADTSTSTAYMELSSLRSEDTAVYFCTRNRYGLDYWGQGTLVTVSS VL: DIVLTQSPDSLAVSLGERATINCRASESVSLHGTRLMHWYQQKPGQPPKLLIYLGSNLESGVPDRFSGSGSETDFTLTISSLQAEDVAVYFCQQSIEDPWTFGQGTKLEIKR")
0.358

// moving on: another record for EC50
# query: EC50 of entry huD2H3-V7 (antibody, human IgG1, kappa, V domains shown, Humanized D2H3, human IgG1/kappa) VH: EVQLVQSGAEVKKPGSSVKVSCKSSGYTFTNYWMHWVRQAPGQGLEWIGAIFPRNSETNYNQKFKARATLTADTSTSTAYMELSSLRSEDTAVYYCTRNRYGLDYWGQGTLVTVSS VL: DIVLTQSPDSLAVSLGERATINCRASESVSLHGTRLMHWYQQKPGQPPKLLISLGSNLESGVPDRFSGSGSETDFTLTISSLQAEDVAVYFCQQSIEDPWTFGQGTKLEIKR
0.157
